B1: Twister Ribozyme (parent)
chain: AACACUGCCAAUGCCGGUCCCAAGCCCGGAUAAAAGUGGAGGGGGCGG

# Variants of: B1
# test summary: self-cleavage, relative activity (ratio to wild type); higher = more cleavage; co-transcriptional
measure name: self-cleavage

[
  {
    "sequence data": "AACACUGCCAAUGCCGGUCCCAGGCCCCGAUAAAAGUGGAGGGGGCGG [A23G G28C]",
    "observed value": 0.246
  },
  {
    "sequence data": "AACACUGCCAAUUCCGGUUCCAAGCCCGGAUAAAAGUGGAGGGGGCGG [G13U C19U]",
    "observed value": 0.0924
  },
  {
    "sequence data": "AACACUGCCAAUGCCGGUCCCAAGCCCGGCUAAAAGUGGAGGGGGCCG [A30C G47C]",
    "observed value": 0.17
  },
  {
    "sequence data": "AACACUGCCAAUGCCGGUCCCACGCCCGGAUAAACGUGGAGGGGGCGG [A23C A35C]",
    "observed value": 0.227
  },
  {
    "sequence data": "AACACUGCCAAUGCCGGUCCCAAGCCCGGAAAAAACUGGAGGGGGCGG [U31A G36C]",
    "observed value": 0.388
  },
  {
    "sequence data": "UACACUGCCAAUGCCGGUCCCAAGCCCGGAUAAAAGUAGAGGGGGCGG [A1U G38A]",
    "observed value": 0.0686
  },
  {
    "sequence data": "AACAUUGCCAAUGCCGGUCCCCAGCCCGGAUAAAAGUGGAGGGGGCGG [C5U A22C]",
    "observed value": 0.963
  },
  {
    "sequence data": "AACACUGCCAAUGCCGGUCCCAAGCCCGGAUAAAAGUCGAGGGGACGG [G38C G45A]",
    "observed value": 0.736
  },
  {
    "sequence data": "AACACAGCCAAUGCUGGUCCCAAGCCCGGAUAAAAGUGGAGGGGGCGG [U6A C15U]",
    "observed value": 0.649
  },
  {
    "sequence data": "AACACUGCCAAUCCCGGUCCCAAGCCUGGAUAAAAGUGGAGGGGGCGG [G13C C27U]",
    "observed value": 0.0915
  },
  {
    "sequence data": "AACACUGCCAAUGCCGGUCCCAAGCCCGGAAAAAAGUGGAGGGGGCCG [U31A G47C]",
    "observed value": 0.391
  },
  {
    "sequence data": "AACACUGCCAAUGUCGGUCCCAAGCCCGGAUAUAAGUGGAGGGGGCGG [C14U A33U]",
    "observed value": 1.07
  },
  {
    "sequence data": "AACACUGCCAAUGCCGGUCUCAAGCCCGGAUAAAAGUGGAGGGGGCGC [C20U G48C]",
    "observed value": 1.04
  },
  {
    "sequence data": "AUCACUGCCAAUGCCGGUCCCAAGCCCGGAUAAAAGUGGAGGGGGAGG [A2U C46A]",
    "observed value": 0.513
  },
  {
    "sequence data": "AACUCUCCCAAUGCCGGUCCCAAGCCCGGAUAAAAGUGGAGGGGGCGG [A4U G7C]",
    "observed value": 0.0628
  },
  {
    "sequence data": "UACACUGCCAAUGCCGGUCCCAAGCCCGGAUCAAAGUGGAGGGGGCGG [A1U A32C]",
    "observed value": 0.057
  },
  {
    "sequence data": "UACACUGCCAAUGCCGGUCCCAAGCCCGGAUAAAAGUGGAGGGGGCGG [A1U]",
    "observed value": 0.0597
  },
  {
    "sequence data": "AACACUGCCAAUGCCGGGCCCAAGCCCGGAUAAAAUUGGAGGGGGCGG [U18G G36U]",
    "observed value": 0.083
  },
  {
    "sequence data": "AACACUGCCAAUGCCGGUCCCAAGCCCGGAUUAAAGUGGACGGGGCGG [A32U G41C]",
    "observed value": 0.284
  },
  {
    "sequence data": "AACACUGCCAAUGCCGGUCUAAAGCCCGGAUAAAAGUGGAGGGGGCGG [C20U C21A]",
    "observed value": 0.115
  },
  {
    "sequence data": "AACACUACCAAUGCCGGUCCCUAGCCCGGAUAAAAGUGGAGGGGGCGG [G7A A22U]",
    "observed value": 0.103
  },
  {
    "sequence data": "GAGACUGCCAAUGCCGGUCCCAAGCCCGGAUAAAAGUGGAGGGGGCGG [A1G C3G]",
    "observed value": 0.274
  },
  {
    "sequence data": "AACACUGCCAAUGCCGGUCCCAGGCCCGGAUAAAAGUAGAGGGGGCGG [A23G G38A]",
    "observed value": 0.194
  },
  {
    "sequence data": "AACACUGCCAAUGCCGGUCCCAAGCCGGGAUAACAGUGGAGGGGGCGG [C27G A34C]",
    "observed value": 0.0686
  },
  {
    "sequence data": "AACACUGCCAAUGCCGGUCCCAAGCCCGGAUAAAACUGGAUGGGGCGG [G36C G41U]",
    "observed value": 0.0915
  },
  {
    "sequence data": "AACACUGCCAAUGCCCGUCCCAAGCCCGGAUUAAAGUGGAGGGGGCGG [G16C A32U]",
    "observed value": 0.456
  },
  {
    "sequence data": "AACACUGGCAAUGCCGGUCCCAAGCCCGGAUAAGAGUGGAGGGGGCGG [C8G A34G]",
    "observed value": 0.276
  },
  {
    "sequence data": "AACACUCCCAAUGCCGGUCCCAAGCCCGGAUAAAAGUGGAGAGGGCGG [G7C G42A]",
    "observed value": 0.062
  },
  {
    "sequence data": "AACACUGCCGAUGCCGGUCCCACGCCCGGAUAAAAGUGGAGGGGGCGG [A10G A23C]",
    "observed value": 0.714
  },
  {
    "sequence data": "AACACUGCCAAUGCCGGUCCCAAGCCCGGAUAAAAGUGGAGAGGGUGG [G42A C46U]",
    "observed value": 0.349
  },
  {
    "sequence data": "AACACUGCCAAUGCCGGUCCCAAGCCCGGAUAAGAGUGGAGCGGGCGG [A34G G42C]",
    "observed value": 0.185
  },
  {
    "sequence data": "AACACUGCCAAUCCCGGCCCCAAGCCCGGAUAAAAGUGGAGGGGGCGG [G13C U18C]",
    "observed value": 0.0885
  },
  {
    "sequence data": "AACACUGCCGAUGCCGGUCCCAAGCCCGGUUAAAAGUGGAGGGGGCGG [A10G A30U]",
    "observed value": 0.984
  },
  {
    "sequence data": "AACACUGCCAAGGCCGGUCCCAAGCCCGGAUAAAAGUGGAGGGGGCGA [U12G G48A]",
    "observed value": 0.593
  },
  {
    "sequence data": "AACACUGCAAAUGCCGGUCCCAAGCCGGGAUAAAAGUGGAGGGGGCGG [C9A C27G]",
    "observed value": 0.0551
  },
  {
    "sequence data": "AAUACUGCCAAUGCCGGUGCCAAGCCCGGAUAAAAGUGGAGGGGGCGG [C3U C19G]",
    "observed value": 0.106
  },
  {
    "sequence data": "AACACUGCCUAUACCGGUCCCAAGCCCGGAUAAAAGUGGAGGGGGCGG [A10U G13A]",
    "observed value": 0.913
  },
  {
    "sequence data": "AACACUGCCAAUGCCGGUCCCAAGCCCGGAUAAAAGUGUAGGCGGCGG [G39U G43C]",
    "observed value": 0.132
  },
  {
    "sequence data": "AACACUGCCAAUGCCGGUCCCAAGUCAGGAUAAAAGUGGAGGGGGCGG [C25U C27A]",
    "observed value": 0.509
  },
  {
    "sequence data": "CACACUGCCAAUGCCGGUCCCAAGCCCGGAUAAAAGUGGAGGGGGCGA [A1C G48A]",
    "observed value": 0.164
  },
  {
    "sequence data": "AACACUGCCAAUGCCGGUCCCACGCCCGGAUAAAAGUGUAGGGGGCGG [A23C G39U]",
    "observed value": 0.0921
  },
  {
    "sequence data": "AACACUGCCUAUGCGGGUCCCAAGCCCGGAUAAAAGUGGAGGGGGCGG [A10U C15G]",
    "observed value": 0.062
  },
  {
    "sequence data": "AACGCUGCCAAUUCCGGUCCCAAGCCCGGAUAAAAGUGGAGGGGGCGG [A4G G13U]",
    "observed value": 0.327
  },
  {
    "sequence data": "AACACUGCCAAUGCCGGUCGCAAGCCCGGGUAAAAGUGGAGGGGGCGG [C20G A30G]",
    "observed value": 0.233
  },
  {
    "sequence data": "AACACUGCCAAUGCCGGUCCCCAGCCCGGAUAAAAGUGGAGGGGGCGG [A22C]",
    "observed value": 1.02
  },
  {
    "sequence data": "AACACUGCCAAUGCCGGUCCCAAGCCCGGAUUGAAGUGGAGGGGGCGG [A32U A33G]",
    "observed value": 0.891
  },
  {
    "sequence data": "AACACUGCCAAUGCCGGUACCAAGCCCGGAUAAAAGUGGAGGGGGGGG [C19A C46G]",
    "observed value": 0.177
  },
  {
    "sequence data": "AACACUGCCAAUGCCGGUCCCAAACCCGGAUAAAAGUGGAGGGAGCGG [G24A G44A]",
    "observed value": 0.101
  },
  {
    "sequence data": "AACACUGCCGAUGCCUGUCCCAAGCCCGGAUAAAAGUGGAGGGGGCGG [A10G G16U]",
    "observed value": 1.14
  },
  {
    "sequence data": "AACACUGCCAAUGCCGGUCCCAAGCCCGGAGAAAACUGGAGGGGGCGG [U31G G36C]",
    "observed value": 0.712
  },
  {
    "sequence data": "AACACUGCCAAAGCCGGUCCCAAGCCCGGAUAAAAGUGGAGGGUGCGG [U12A G44U]",
    "observed value": 1.05
  },
  {
    "sequence data": "AACACUGCCAAUGCCGGUCUCCAGCCCGGAUAAAAGUGGAGGGGGCGG [C20U A22C]",
    "observed value": 1.01
  },
  {
    "sequence data": "AACACUGCCAAUGCCGGUCCCAAGCACGGAUAAGAGUGGAGGGGGCGG [C26A A34G]",
    "observed value": 0.156
  },
  {
    "sequence data": "AACACUGCCAAUGCCGGUACCAAGCCCGGAUAAAAGUGGAGGGCGCGG [C19A G44C]",
    "observed value": 0.746
  },
  {
    "sequence data": "AAGACUGCCAAUGCCGGUCCCAAGCCCGGAUAAACGUGGAGGGGGCGG [C3G A35C]",
    "observed value": 0.397
  },
  {
    "sequence data": "AACACUGCCAAUUCCGGUCCCAAGCCCGGAUAAAAGUGGUGGGGGCGG [G13U A40U]",
    "observed value": 0.16
  },
  {
    "sequence data": "AACACUGCCAAUGCCGGUCCCUAGCCCGGAUAUAAGUGGAGGGGGCGG [A22U A33U]",
    "observed value": 0.698
  }
]

Reference source for all entries: the RNAGym collection of RNA variant scans (doi:10.7554/elife.80360)
